- TARGET OF ASSAY: α7 nAChR (Homo sapiens, UniProt P36544)
- Sequence (P36544 23-502): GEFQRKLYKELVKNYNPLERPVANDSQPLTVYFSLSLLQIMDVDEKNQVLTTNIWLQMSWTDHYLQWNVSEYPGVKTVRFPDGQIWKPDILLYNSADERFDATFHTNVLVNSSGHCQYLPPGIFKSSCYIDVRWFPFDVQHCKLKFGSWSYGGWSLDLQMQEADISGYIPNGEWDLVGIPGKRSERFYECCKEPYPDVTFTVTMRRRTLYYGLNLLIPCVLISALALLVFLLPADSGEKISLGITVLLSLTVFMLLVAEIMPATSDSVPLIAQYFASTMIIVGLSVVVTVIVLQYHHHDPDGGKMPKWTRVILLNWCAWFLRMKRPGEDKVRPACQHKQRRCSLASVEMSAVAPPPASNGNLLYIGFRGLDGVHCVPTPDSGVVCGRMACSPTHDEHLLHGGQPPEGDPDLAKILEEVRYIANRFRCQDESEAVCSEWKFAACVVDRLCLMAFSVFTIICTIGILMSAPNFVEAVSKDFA
- EXPERIMENT: α7 concentration-response on co-application with 10 µM PNU-120596
- CONDITION PARAMETERS: peak currents, co-applied with 10 µM PNU-120596, Hill fit; read-out: EC50 (PNU Activation)
- Description: Compounds were co-applied at a concentration of 100 µM with 30 µM racemic TQS (Figure 3A). All compounds except S4, S5, and S8 gave large responses when co-applied with TQS, consistent with silent agonism of α7 (see Table S1 for ANOVA). Active compounds were also evaluated across a range of concentrations with the alternative PAM, PNU-120596 (Figure 3B). […] Solutions were applied from 96-well plates via disposable tips. […] Multi-cell averages were calculated for comparisons of complex responses. […]
pEC50: −log10 of the molar value.
MEASURED QUANTITY: pEC50

• C[S+](C)c1cc([N+](=O)[O-])ccc1O.[Br-] = 4.34
• COc1ccc([N+](=O)[O-])cc1C[S+](C)C.[Br-] = 3.58
• CCOCC(O)COc1ccc(NC(=O)CC[S+](C)C)cc1.Cc1ccc(S(=O)(=O)[O-])cc1 (stereo not drawn) [Compound S6, reference compound] = 4.90
